Species: Cavia porcellus
Test Details: Effect on the contractile force of spontaneously beating atria from Reserpine-treated guinea pigs as percentage variation from the control at concentration of 10E-3 M
Format: functional
Rule: measured Variation below -40% gets 1; anything equal to or greater than -40% gets 0.

**Query** Does this compound meet the criterion Variation < -40%? COCc1nc(N(C)C)ncc1C(=O)OC
**Result** 0

**Query** Strictly below -40%: is that where Variation of CCc1ccnc(N(C)C)n1 sits?
**Result** 1

**Query** Determine if CN(C)c1nccc(C(C)(C)C)n1 shows Variation strictly lower than -40%.
**Result** 0

**Query** Does the reported Variation of the following compound sit strictly below -40%? CCOC(=O)c1cnc(N(C)C)nc1-c1ccccc1
**Result** 1

**Query** # strict comparison: is reported Variation < -40%? input = Nc1cc(-c2ccncc2)c[nH]c1=O [INAMRINONE]
**Result** 0

**Query** Just wondering, is Variation of Cc1nc(N(C)C)ncc1C(=O)O below -40%?
**Result** 0

**Query** Input CCCc1nc(N(C)C)ncc1C(=O)O ; condition: Variation strictly below -40%. Does it hold?
**Result** 0

----------
Organism: Cavia porcellus
Test Details: Effect on the frequency rate of spontaneously beating atria from Reserpine-treated guinea pigs as percentage variation from the control at concentration of 10E-5 M
Format: functional
Assay Readout: Variation (%)
I only need the number, in %, no unit after it.

Please fill in: Variation reported for Cc1ccnc(N(C)C)n1 = 0

The recorded Variation for CN(C)c1ncc(C(=O)O)c(C(F)(F)F)n1 is -2.85

Looking up CN(C)c1ncc(C(=O)O)c(Cc2ccccc2)n1 , I found its Variation recorded as 0

Variation in this record for CCOC(=O)c1cnc(N(C)C)nc1CC : -9.37

Variation measured on CCOC(=O)c1cnc(N(C)C)nc1 = 3.71

// Variation lookup, compound = CCc1ccnc(N(C)C)n1 , result: -3.03

Entry under test: CN(C)c1nccc(Cc2ccccc2)n1 . Its Variation was 3.03

For this compound ( COCc1nc(N(C)C)ncc1C(=O)OC ), measured Variation is 2.85

For reference, reported Variation for CCCc1ccnc(N(C)C)n1 stands at -26.31

Looking up COCc1ccnc(N(C)C)n1 , I found its Variation recorded as -1.33

Variation reported for this compound COCc1nc(N(C)C)ncc1C(=O)O : 0

Entry CN(C)c1ncc(C(=O)O)c(-c2ccccc2)n1 , Variation reported as 0

Short answer for CCCc1nc(N(C)C)ncc1C(=O)O : Variation was -2.85

response.value for CCc1nc(N(C)C)ncc1C(=O)O (field: Variation) = 0

Cc1[nH]c(=O)c(C#N)cc1-c1ccncc1 [MILRINONE] yielded Variation of 15.22

The measured Variation associated with CN(C)c1ncc(C(=O)O)cn1 reads 3.12

Briefly, Variation measured for CCOC(=O)c1cnc(N(C)C)nc1C : 0

Looking up Cc1nc(N(C)C)ncc1C(=O)O , I see its Variation listed as 9.67

Lab note: measured Variation of CC(C)c1nc(N(C)C)ncc1C(=O)O was -3.13

For this compound ( Nc1cc(-c2ccncc2)c[nH]c1=O [INAMRINONE] ), measured Variation is 0

The value of Variation measured for the compound CCOC(=O)c1cnc(N(C)C)nc1C(C)(C)C turned out to be 4.76

Lookup result for CN(C)c1nccc(C(C)(C)C)n1 ; measured Variation: -6.66

// Variation value for CCOC(=O)c1cnc(N(C)C)nc1C(C)C : -3.51

Entry CN(C)c1nccc(-c2ccccc2)n1 , Variation reported as 0

In plain terms, CN(C)c1nccc(C(F)(F)F)n1 has a documented Variation of -3.23

Reported Variation ( CCOC(=O)c1cnc(N(C)C)nc1C(F)(F)F ) = -3.23

For record CC(C)c1ccnc(N(C)C)n1 the listed Variation is -5.15

The recorded Variation for CCOC(=O)c1cnc(N(C)C)nc1-c1ccccc1 is 3.7

get_value(item= CCOC(=O)c1cnc(N(C)C)nc1C(=O)OCC , readout=Variation) returns -4.76

Record summary for COC(=O)c1cnc(N(C)C)nc1Cc1ccccc1 : reported Variation = 0
